Biological target: T1, recombinant human CTLA4-his protein (Acro biosystems, Cat#CT4-H5229) (human, UniProt P16410 37-162)
T1 construct: bought recombinant protein; not shown: his tag
T1 sequence (looked up): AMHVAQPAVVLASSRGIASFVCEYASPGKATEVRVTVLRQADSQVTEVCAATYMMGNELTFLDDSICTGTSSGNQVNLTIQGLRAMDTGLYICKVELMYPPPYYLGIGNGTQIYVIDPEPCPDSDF
Test: SPR, Biacore; antibody captured on anti-human IgG CM5 chip, CTLA4-his as analyte
Measured kon, listed per entry.
# output: bare number, implied unit M⁻¹ s⁻¹

Worked examples, 2 binders total:
huD1D5-V9 (antibody, human IgG4 S228P, kappa, V domains shown, humanized IgG4/kappa; cell supernatant on Octet, purified antibody in Biacore, ELISA, FACS and the functional assay; also called hu CTLA4 D1D5-V9; huDID5-V9) VH: EVQLVESGGGLVKPGGSLRLSCAASGFTFSDYGMAWVRQAPGKGPEWVAFISNLAYSVYYADTETGRFTISRDDAKNSLYLQMNSLRAEDTAVYYCARSGLPYAMDYWGQGTTVTVSS VL: DIQMTQSPSSLSASVGDRVTITCRASQDISNYLNWYQQKPGKVPKLLIYYISRLHSGVPSRFSGSGSGTDFTLTISSLQPEDVATYYCQQGRMLPWTFGGGTKVEIKR    172000
huC1D1-V8 (antibody, human IgG4 S228P, kappa, V domains shown, humanized IgG4/kappa; cell supernatant on Octet, purified antibody in Biacore, ELISA, FACS and the functional assay; also called hu CTLA4 C1D1-V8) VH: EVQLVESGGGLVQPGRSLRLSCTASGFTFSDNWMNWVRQAPGKGLEWVGQIRNKPYNYETYYSDSVKGRFTISRDDSKSIAYLQMNSLKTEDTAVYYCTGGMDYWGQGTTVTVSS VL: DIQMTQSPSSLSASVGDRVTITCGASEIIYGALNWYQQKPGKSPKLLIYGATNLADGVPSRFSGSGSGTDFTLTISSLQPEDVATYYCQKILSPPPWTFGGGTKVEIKR    71900

Task item: I'd like to know its kon. The binder in question is chimeric D1D5 anti-CTLA4 antibody (antibody, human IgG4 S228P, kappa, V domains shown, mouse variable domains on human IgG4/kappa, made in 293F cells) VH: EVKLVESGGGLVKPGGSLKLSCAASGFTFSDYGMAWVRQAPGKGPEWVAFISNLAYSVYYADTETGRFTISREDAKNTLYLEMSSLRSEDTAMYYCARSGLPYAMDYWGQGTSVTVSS VL: DIQMTQTTSSLSASLGDRVTISCRASQDISNYLNWYQQKPDGTVKLLIYYISRLHSGVPSRFSGSGSGTDFSLTISNLEQEDIATYFCQQGRMLPWTFGGGTRLEIKR
Reply: 209000

Taken from patent US20230212304A1.
